target: DNA dC->dU-editing enzyme APOBEC-3G (Homo sapiens) (UniProt Q9HC16); experiment: qHTS for inhibitors of Vif-A3G interactions: Validation (AID 588379); settings: Vif-A3G protein interaction assay; series mostly up to 46.1 µM
Sequence (Q9HC16 whole entry, looked up): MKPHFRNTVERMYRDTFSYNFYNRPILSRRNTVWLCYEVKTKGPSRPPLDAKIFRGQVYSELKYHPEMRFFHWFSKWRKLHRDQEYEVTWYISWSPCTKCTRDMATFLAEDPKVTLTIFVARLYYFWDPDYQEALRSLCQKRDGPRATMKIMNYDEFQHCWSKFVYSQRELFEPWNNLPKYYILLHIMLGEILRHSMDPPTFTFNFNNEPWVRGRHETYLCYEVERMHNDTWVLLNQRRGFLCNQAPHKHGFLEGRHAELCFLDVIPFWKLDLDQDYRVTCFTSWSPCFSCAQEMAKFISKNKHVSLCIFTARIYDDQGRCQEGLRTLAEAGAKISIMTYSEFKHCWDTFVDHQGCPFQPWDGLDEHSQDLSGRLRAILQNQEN
The source made the active and inactive calls. The call rests on the fitted dose curve; in most records, active means well fitted inhibition curve with a large enough effect; inconclusive means small, poorly fitted or top-dose-only effect; inactive means flat fitted curve, though single readings scatter.

>  <input-smiles>
COC(=O)C1=C(C)NC(C)=C([N+](=O)[O-])[C@H]1c1ccccc1C(F)(F)F

>  <outcome>
inactive

$$$$
>  <input-smiles>
COc1cc2c(cc1OC)C(c1ccc(N)cc1)=NNC(=O)C2

>  <outcome>
inactive

$$$$
>  <input-smiles>
CN(C)CCCSC(=N)N

>  <outcome>
inactive

$$$$
>  <input-smiles>
CCCCN1CCC[C@@H]1CNC(=O)c1cc(C#N)c2ccccc2c1OC

>  <outcome>
inactive

$$$$
>  <input-smiles>
CCS(=O)(=O)N1CCC[C@H]2CN3CCc4cc(OC)ccc4[C@@H]3C[C@@H]21

>  <outcome>
inactive

$$$$
>  <input-smiles>
CCC(=O)N[C@@H]1Cc2ccccc2[C@@H](c2ccccc2)C1

>  <outcome>
inactive

$$$$
>  <input-smiles>
CC(=O)O[C@H]1C[C@H]2CC[C@@H]3[C@H]4C[C@@H]([N+]5(C)CCCCC5)[C@@H](OC(C)=O)[C@]4(C)CC[C@@H]3[C@@]2(C)C[C@@H]1[N+]1(C)CCCCC1

>  <outcome>
inactive

$$$$
>  <input-smiles>
N[C@@H](CSS(=O)(=O)O)C(=O)O

>  <outcome>
inactive

$$$$
>  <input-smiles>
OC[C@@H]1O[C@@H](n2cnc3c(N[C@H]4CCC[C@@H]4O)ncnc32)[C@H](O)[C@H]1O

>  <outcome>
inactive

$$$$
>  <input-smiles>
CC(C)=CCC/C(C)=C/CC/C(C)=C/CO

>  <outcome>
inactive

$$$$
